Hi there, I'd appreciate the recorded TGI for every entry that follows.
Tested on: K-562 leukemia
protocol-summary: NCI tumour cell line growth inhibition, 48 h

Example cases with answers are listed next.
COc1cc2c(cc1Cc1cccc(Cl)c1F)c(=O)c(C(=O)O)cn2[C@@H](CO)C(C)C	16.3 µM
CC(C)CC(=O)NC(C(=O)NC(C(=O)NC(CC(C)C)C(O)CC(=O)NC(C)C(=O)NC(CC(C)C)C(O)CC(=O)O)C(C)C)C(C)C (centres undefined)	> 100 µM
CC(=O)OCC1OC(n2c3c(cc(C#N)c2=S)CCC3)C(OC(C)=O)C(OC(C)=O)C1OC(C)=O (centres undefined)	> 100 µM
COC(=O)C1=C(OC(=O)/C(=C/c2ccccc2)c2ccc(Cl)cc2)C(C(=O)OC)[C@@]2(O)[C@@H](C(=O)OC)[C@H](C)C[C@@H]1[C@@H]2C(=O)OC (some centres undefined)	> 100 µM
CC1=NN(c2ccc(S(=O)(=O)O)cc2)C(=O)/C1=C/c1ccc(Cl)cc1	> 100 µM
O=C1[C@@H]2C(c3ccccc3[N+](=O)[O-])=[N+](c3ccccc3)O[C@@H]2C(=O)N1c1ccc(Cc2ccc(N3C(=O)[C@H]4C(c5ccccc5[N+](=O)[O-])=[N+](c5ccccc5)O[C@H]4C3=O)cc2)cc1	> 100 µM

Batch: TGI for all items listed.
1. C=C(C)[C@@]1(O)CCCC[C@@H]1CC(Sc1ccccc1)Sc1ccccc1
2. COc1cc(C(=O)N2CCN(c3ccccc3)CC2)c2ccccc2n1
3. [N-]=[N+]=Nc1c(Cl)c(Cl)nc2ccccc12
4. N#Cc1c(N2CCOCC2)nc(=S)[nH]c1-c1ccccc1
5. NC(=O)/C(=N\NC(=O)C[n+]1ccccc1)C1NC(=O)NC1=O (centres undefined)

["44.4 µM", "> 100 µM", "> 100 µM", "> 100 µM", "> 100 µM"]

Batch: TGI for all items listed.
1. COc1cc(-c2oc3c(OC)cc(OC)c(O)c3c(=O)c2OC)cc(OC)c1OC
2. CCCn1cc2c(SC)nc(SC)nc2n1
3. N=C(N)SCc1c2ccccc2c(CSC(=N)N)c2ccccc12
4. O=C(/C=C/c1ccc(C(F)(F)F)cc1)c1c([O-])on[n+]1-c1ccccc1
5. CCOC(=O)Nc1nc2ccc(Br)cc2s1
6. O=[N+]([O-])c1ccc(C2CC(c3ccccc3)=Nc3ccccc3S2)cc1 (centres undefined)
7. O=C1C=CC(=O)c2c1ccc1c3ccccc3n(-c3ccccc3)c21

1: > 100 µM; 2: > 100 µM; 3: 17.9 µM; 4: > 100 µM; 5: > 50 µM; 6: > 100 µM; 7: 5.08 µM

Give TGI for COc1ccc2cc(C(=O)/C=C/c3ccc(N(C)C)cc3)ccc2c1
> 100 µM

###

Hi there, I'd appreciate the recorded TGI for every entry that follows.
Test system: MDA-MB-231 breast
protocol-summary: NCI tumour cell line growth inhibition, 48 h

Example cases with answers are listed next.
CN(C)CCNC(=O)c1cccc2c(NC(CS)C(=O)O)c3ccccc3[n+](C)c12 (stereo not drawn)	> 100 µM
COC(=O)C1=COC(OC2OC(CO)C(O)C(O)C2O)C2C3CN4CCc5c([nH]c6ccccc56)C4(CC12)O3 (stereo not drawn)	> 100 µM
Cc1occc1C(=S)Nc1ccc(Cl)c(/C=N/OC(C)(C)C)c1	42.3 µM

Batch: TGI for all items listed.
1. CC(Oc1ccccc1Cl)C(=O)NN1C(=O)CC(=O)NC1=S (stereo not drawn)
2. CC1(C)CC(=O)C2=C(C1)NC1=C(C2)C(=O)CC(C)(C)C1
3. CC[C@@H](C(=O)[C@H](C)[C@H](O)[C@@H](C)[C@H]1O[C@H]([C@@H](CC)C(=O)N(CC)CC)CC[C@H]1C)C1O[C@]2(C=C[C@@H](O)[C@]3(CC[C@@](C)([C@H]4CC[C@](O)(CC)[C@H](C)O4)O3)O2)[C@H](C)C[C@@H]1C (stereo partly drawn)
4. CC(=NNC(=S)Nc1cccc(C)c1)c1cccc(C(C)=NNC(=S)Nc2cccc(C)c2)n1

1. > 100 µM
2. > 100 µM
3. 4.29 µM
4. 59.9 µM

For MDA-MB-231 breast, give the measured TGI of the entry CCOC(=O)c1cc(C(=O)c2cc(OC)c(OC)c(OC)c2)n2c1ccc1ccccc12
> 100 µM

###

Test system: UACC-62 melanoma
protocol-summary: NCI tumour cell line growth inhibition, 48 h
experimental-readout: TGI

Example cases with answers are listed next.
CC(=NNC(=S)Nc1cccc(C)c1)c1cccc(C(C)=NNC(=S)Nc2cccc(C)c2)n1	> 100 µM
N/C(=N/N=C/c1ccccc1)N/N=C\c1ccccc1	28.6 µM
COc1cc(/C(=C2/O[C@@H]([C@H]3COC(C)(C)O3)[C@H]3OC(C)(C)O[C@@H]23)c2ccc3ccccc3c2)cc(OC)c1OC	> 100 µM
CC(C)(C)[Si](C)(C)OC1[C@@H](O[Si](C)(C)C(C)(C)C)[C@@H](CNC(=O)NC(=O)CF)O[C@H]1n1cnc2c(NC(=O)Nc3ccccc3)ncnc21 (stereo partly drawn)	> 50 µM
CCCN(CCC)C(=S)N/N=C/c1ccccn1	1.91 µM
O=[N+]([O-])c1ccc(C2CC(c3ccccc3)=Nc3ccccc3S2)cc1 (stereo not drawn)	> 100 µM

Batch: TGI for all items listed.
1. C[C@]12CC[C@@H]3c4cc(O)c(O)cc4CC[C@H]3[C@@H]1CC[C@@H]2O
2. COC(=O)C1=C(OC(=O)c2ccccc2)C(C(=O)OC)[C@@]2(O)[C@@H](C(=O)OC)[C@H](C)C[C@@H]1[C@@H]2C(=O)OC (stereo partly drawn)

1. 29.1 µM
2. > 100 µM

###

Hi there, I'd appreciate the recorded TGI for every entry that follows.
Test system: IGROV1 ovarian
protocol-summary: NCI tumour cell line growth inhibition, 48 h
Give bare numbers, in µM.

Example cases with answers are listed next.
O=C1C=CC(=O)c2c1ccc1c3ccccc3n(-c3ccccc3)c21	34.5
CCCCCCCCCCCC(=O)N1CCN(C(C)=O)CC1	42.5
CC[C@@H](C(=O)[C@H](C)[C@H](O)[C@@H](C)[C@H]1O[C@H]([C@@H](CC)C(=O)N(CC)CC)CC[C@H]1C)C1O[C@]2(C=C[C@@H](O)[C@]3(CC[C@@](C)([C@H]4CC[C@](O)(CC)[C@H](C)O4)O3)O2)[C@H](C)C[C@@H]1C (stereo partly specified)	10.8
Cc1c(Cl)nc(Cl)nc1Cl	8.33
O=c1/c(=C/c2ccc([N+](=O)[O-])o2)sc2n1[C@@H](c1ccc(Cl)cc1)C=C(c1cc(F)c(Cl)cc1Cl)N=2	31.7

Batch: TGI for all items listed.
1. CO[C@H]1C[C@H](O[C@H]2CC[C@]3(C=O)[C@H]4CC[C@]5(C)[C@@H](C6=CC(=O)OC6)CC[C@]5(O)[C@@H]4CC[C@]3(O)C2)O[C@H](C)[C@H]1O[C@@H]1O[C@H](CO)[C@@H](O)[C@H](O)[C@H]1O
2. Cc1ccc([N+](=O)[O-])cc1S(=O)(=O)Nc1ccc(C2=NOC(c3cccs3)C2)cc1 (stereo unspecified)
3. CCCc1cc(=O)n2c(C(=O)Nc3cccc(C(=O)OCC)c3)c(C(=O)Nc3ccc(F)cc3)sc2n1

1. 0.139
2. 30
3. 65.9

###

Tested on: SF-295 CNS
protocol-summary: NCI tumour cell line growth inhibition, 48 h
experimental-readout: log10(TGI) (log10 of the value in µM)
The base-10 logarithm of TGI, taken with TGI in µM, is what appears here.

O=[N+]([O-])c1cc([N+](=O)[O-])c(/C=C/c2ccc(Cl)c(Cl)c2)cc1/C=C/c1ccc(Cl)c(Cl)c1	1.91
C[C@@H](NC(=O)/C(C#N)=C/c1ccc([N+](=O)[O-])cc1)c1ccccc1	0.74
CCNC(=O)Nc1ccc(Oc2ccnc3ccc4c(ccn4C)c23)cc1	1.86
COCCNc1ccc2c3c(cccc13)C(=O)N(CCN(C)C)C2=O	1.32
CC(C)(C)[Si](C)(C)OCC1OC(n2cc(I)c(=O)[nH]c2=O)C(O[Si](C)(C)C(C)(C)C)C1O[Si](C)(C)C(C)(C)C (stereo not given)	1.57
C=C1C(=O)O[C@H]2[C@H]1CC/C(C=Nc1c(N)cc(C(F)(F)F)cc1C(F)(F)F)=C\CC[C@@]1(C)O[C@@H]21	1.23
N/C(=N/N=C/c1ccccc1)N/N=C\c1ccccc1	1.51
c1ccc2cc(NCNc3ccc4ccccc4c3)ccc2c1	1.53

Batch: log10(TGI) for all items listed.
1. S=C(NCCNC(=S)[S][Sn]([c]1ccccc1)([c]1ccccc1)[c]1ccccc1)[S][Sn]([c]1ccccc1)([c]1ccccc1)[c]1ccccc1
2. O=c1/c(=C/c2ccc([N+](=O)[O-])o2)sc2n1[C@@H](c1ccc(Cl)cc1)C=C(c1cc(F)c(Cl)cc1Cl)N=2

1: -0.64; 2: 1.86

For SF-295 CNS, give the measured log10(TGI) of the entry NC1CCCCC1N.O=[Se]([O-])[O-].[Pt+4] (stereo not given)
1.33
